// data source = the supplement of paper PMC8728848

- Target Entity: Gal(b1-3)GalNAc(a1-3)[Fuc(a1-2)]Gal(b1-4)GlcNAc
- Assay Text: glycan array binding signal (z-score within array); higher = stronger binding
- Reported Conditions: glycan notation: IUPAC condensed, linker removed
Shown is part of a subset that was picked to be rich in the strongest signals.

Binder	glycan array binding signal (z-score)
SSP1 (Sclerotinia sclerotiorum), XP_001584968 (protein) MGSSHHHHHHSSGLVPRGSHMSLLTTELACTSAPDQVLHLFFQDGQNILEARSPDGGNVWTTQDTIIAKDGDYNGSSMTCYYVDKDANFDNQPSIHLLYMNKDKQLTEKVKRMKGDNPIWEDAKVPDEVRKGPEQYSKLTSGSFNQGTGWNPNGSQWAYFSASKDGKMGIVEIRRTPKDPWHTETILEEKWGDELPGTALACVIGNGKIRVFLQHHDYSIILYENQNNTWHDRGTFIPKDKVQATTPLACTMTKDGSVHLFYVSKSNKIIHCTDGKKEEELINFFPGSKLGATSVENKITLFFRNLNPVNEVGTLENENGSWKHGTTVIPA	3.1
